The measured values listed here are drawn from patent US8148388B2.

target: Yes (h) (Homo sapiens); assay: Yes human kinase assay (glass-fiber filter); assay type: biochemical; conditions: test concentration of 10^−6M; read-out: C11 score (inhibition of Yes human)
Sequence (P07947 whole entry): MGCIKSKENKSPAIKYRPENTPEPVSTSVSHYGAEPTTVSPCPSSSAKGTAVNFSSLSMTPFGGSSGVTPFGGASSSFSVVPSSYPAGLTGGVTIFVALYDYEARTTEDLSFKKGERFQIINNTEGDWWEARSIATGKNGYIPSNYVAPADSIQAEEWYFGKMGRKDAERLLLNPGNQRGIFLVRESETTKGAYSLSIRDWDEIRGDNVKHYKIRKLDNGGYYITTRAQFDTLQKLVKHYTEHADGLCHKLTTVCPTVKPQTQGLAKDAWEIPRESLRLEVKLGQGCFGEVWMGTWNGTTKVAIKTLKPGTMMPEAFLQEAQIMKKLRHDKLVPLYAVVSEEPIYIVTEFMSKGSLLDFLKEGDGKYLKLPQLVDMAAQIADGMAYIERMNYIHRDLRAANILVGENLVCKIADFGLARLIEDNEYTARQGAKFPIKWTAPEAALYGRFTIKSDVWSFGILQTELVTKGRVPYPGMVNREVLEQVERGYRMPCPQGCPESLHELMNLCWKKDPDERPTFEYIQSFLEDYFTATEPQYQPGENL
inhibition at 1 µM listing for selected compounds.

{"columns": ["COMPOUND", "RESULT"],
 "data": [
  ["N#Cc1cnc2nc1Nc1cccc(c1)OCCCCOc1cccc(c1)N2", "30 to 60%"],
  ["COc1ccc2c(c1)OCCCCCCOc1ccc(Cl)cc1Nc1cc(ncn1)N2", "10 to 30%"],
  ["O=C1NCCCCOc2cccc(c2)Nc2ccnc(n2)Nc2cccc1c2", "30 to 60%"],
  ["O=C1CCc2cccc(c2)Nc2cc(ncn2)Nc2cccc(c2)CN2CCN1CC2", "10 to 30%"],
  ["O=C1COc2cccc(c2)Nc2cc(ncn2)Nc2cccc(c2)CN2CCN1CC2", "60 to 80%"],
  ["COc1ccc2cc1OCCCNCCOc1ccc(Cl)cc1Nc1cc(ncn1)N2", "> 80%"],
  ["O=C1CNC(=O)CNC(=O)c2cccc(c2)Nc2cc(ncn2)Nc2cccc(c2)CN1", "10 to 30%"],
  ["N#Cc1cnc2nc1Nc1cccc(c1)OCC(=O)NCCCCOc1cccc(c1)N2", "10 to 30%"],
  ["CC1(C)NC(=O)Cc2ccc(Cl)cc2Nc2cc(ncn2)Nc2ccc(OCCCN3CCOCC3)c(c2)OCCNC1=O", "> 80%"],
  ["N#Cc1cnc2nc1Nc1cccc(c1)C(=O)NCCCCCOc1cccc(c1)N2", "10 to 30%"]
]}

State its inhibition at 1 µM on Yes (h) (Homo sapiens): `O=C1NCCCCCOc2cccc(c2)Nc2ccnc(n2)Nc2cccc1c2` 10 to 30%

* * *

target: ErbB4 (h) (Homo sapiens, UniProt Q15303)
Sequence (Q15303 26-1308): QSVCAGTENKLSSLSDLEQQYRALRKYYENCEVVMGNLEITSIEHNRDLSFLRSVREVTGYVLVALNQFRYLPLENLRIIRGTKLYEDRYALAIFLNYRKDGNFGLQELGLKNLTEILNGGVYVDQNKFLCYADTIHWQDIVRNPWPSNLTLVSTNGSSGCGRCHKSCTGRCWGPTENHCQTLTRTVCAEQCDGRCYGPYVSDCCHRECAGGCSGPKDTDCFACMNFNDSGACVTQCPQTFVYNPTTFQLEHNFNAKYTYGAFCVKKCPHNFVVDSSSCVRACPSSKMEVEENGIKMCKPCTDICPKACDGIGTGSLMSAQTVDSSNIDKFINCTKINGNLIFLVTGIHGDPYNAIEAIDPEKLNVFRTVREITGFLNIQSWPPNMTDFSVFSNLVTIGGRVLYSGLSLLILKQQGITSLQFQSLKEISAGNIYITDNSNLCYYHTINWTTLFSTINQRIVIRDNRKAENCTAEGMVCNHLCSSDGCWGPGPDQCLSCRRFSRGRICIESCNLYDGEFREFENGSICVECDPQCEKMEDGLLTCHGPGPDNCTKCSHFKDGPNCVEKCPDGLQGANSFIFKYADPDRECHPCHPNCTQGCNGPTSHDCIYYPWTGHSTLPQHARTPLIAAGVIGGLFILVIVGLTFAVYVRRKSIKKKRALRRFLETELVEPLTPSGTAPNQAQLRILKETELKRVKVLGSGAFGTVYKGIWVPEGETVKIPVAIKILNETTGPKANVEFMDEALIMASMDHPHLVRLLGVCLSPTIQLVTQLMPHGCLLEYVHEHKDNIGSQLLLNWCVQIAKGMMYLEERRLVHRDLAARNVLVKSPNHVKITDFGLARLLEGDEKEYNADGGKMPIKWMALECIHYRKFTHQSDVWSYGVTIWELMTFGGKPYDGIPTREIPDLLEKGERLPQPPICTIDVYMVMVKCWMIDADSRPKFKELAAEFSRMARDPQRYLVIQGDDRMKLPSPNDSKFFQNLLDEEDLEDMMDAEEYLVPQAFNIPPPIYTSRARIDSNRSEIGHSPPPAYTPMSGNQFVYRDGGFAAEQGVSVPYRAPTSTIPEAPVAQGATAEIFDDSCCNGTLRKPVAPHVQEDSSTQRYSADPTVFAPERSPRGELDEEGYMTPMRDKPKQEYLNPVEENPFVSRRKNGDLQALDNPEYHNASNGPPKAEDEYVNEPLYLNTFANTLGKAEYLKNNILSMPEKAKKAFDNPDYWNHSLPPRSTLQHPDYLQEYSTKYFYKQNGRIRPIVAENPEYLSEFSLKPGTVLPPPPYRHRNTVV
QUANTITY KIND: IC50

Solved entries (count: 3):
{"columns": ["MOLECULE", "IC50"],
 "data": [
  ["COc1ccc2cc1OCCNC(=O)COc1cccc(c1)Nc1cc(ncn1)N2", "1 to 10 µM"],
  ["O=C1CN2CCN(CC2)Cc2cccc(c2)Nc2cc(ncn2)Nc2cccc(c2)OCCCCCN1", "< 1 µM"],
  ["CN1CC(=O)NC(CCc2ccccc2)C(=O)NCc2cccc(c2)Nc2cc(ncn2)Nc2cccc(c2)C1 (stereo not shown)", "< 1 µM"]
]}

In the following, a different molecule is considered.
State its IC50 on ErbB4 (h) (Homo sapiens, UniProt Q15303): `O=C1COc2cccc(c2)Nc2cc(ncn2)Nc2cccc(c2)CCN1` 1 to 10 µM

* * *

target: GSK3B (h) (Homo sapiens); assay: GSK3β human kinase assay (glass-fiber filter); assay type: biochemical; conditions: test concentration of 10^−6M
Sequence (P49841 whole entry): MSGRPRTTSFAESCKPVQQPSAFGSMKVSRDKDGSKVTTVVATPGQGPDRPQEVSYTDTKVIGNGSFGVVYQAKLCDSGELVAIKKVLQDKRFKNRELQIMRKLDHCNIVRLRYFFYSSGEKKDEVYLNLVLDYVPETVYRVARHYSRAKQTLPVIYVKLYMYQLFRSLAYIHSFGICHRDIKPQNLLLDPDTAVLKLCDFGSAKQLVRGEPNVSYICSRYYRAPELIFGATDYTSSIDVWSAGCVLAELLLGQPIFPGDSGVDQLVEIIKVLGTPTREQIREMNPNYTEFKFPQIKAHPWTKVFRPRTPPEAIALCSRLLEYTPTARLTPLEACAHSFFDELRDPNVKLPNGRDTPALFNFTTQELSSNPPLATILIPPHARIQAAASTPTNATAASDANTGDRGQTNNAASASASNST
QUANTITY KIND: C8 score (inhibition of GSK3β human)

Solved entries (count: 4):
{"columns": ["SMILES", "QUANTITY KIND", "RESULT"],
 "data": [
  ["COc1ccc2cc1OCCNC(=O)[C@@H]1CCCN1Cc1cc(F)c(Cl)cc1Nc1nc(ncc1C#N)N2", "C8 score (inhibition of GSK3β human)", "1 (Score 1=10-30% inhibition)"],
  ["COc1ccc2cc1OCCCCCCCCCOc1ccc(Cl)cc1Nc1cc(ncn1)N2", "C8 score (inhibition of GSK3β human)", "1 (Score 1=10-30% inhibition)"],
  ["COc1ccc2cc1OCCCCCCCOc1ccc(Br)cc1Nc1cc(ncn1)N2", "C8 score (inhibition of GSK3β human)", "1 (Score 1=10-30% inhibition)"],
  ["COc1ccc2cc1OCCCNC(=O)[C@@H]1CCCN1Cc1cc(F)c(Cl)cc1Nc1nc(ncc1C#N)N2", "C8 score (inhibition of GSK3β human)", "2 (Score 2=30-60% inhibition)"]
]}

Look up C8 score (inhibition of GSK3β human): `COc1ccc2cc1OCCCCCCCCOc1ccc(Br)cc1Nc1cc(ncn1)N2` 1 (Score 1=10-30% inhibition)

Look up C8 score (inhibition of GSK3β human): `COc1cc2cc(c1)OCCCCCCOc1ccc(Br)cc1Nc1cc(ncn1)N2` 1 (Score 1=10-30% inhibition)

* * *

Here's what we have: IC50 numbers for ErbB2 (h) (Homo sapiens, UniProt P04626).

{"columns": ["COMPOUND", "TARGET SYSTEM", "IC50"],
 "data": [
  ["CN(C)CCCCC1NC(=O)CN(C)Cc2cccc(c2)Nc2cc(ncn2)Nc2cccc(c2)CN2CCN(CC2)C1=O (stereo not shown)", "ErbB2 (h) (Homo sapiens, UniProt P04626)", "1 to 10 µM"],
  ["CN1CC(=O)NC(CCc2ccccc2)C(=O)NCc2cccc(c2)Nc2cc(ncn2)Nc2cccc(c2)C1 (stereo not shown)", "ErbB2 (h) (Homo sapiens, UniProt P04626)", "< 1 µM"],
  ["CN(C)CCCCC1NC(=O)CN(C)Cc2cccc(c2)Nc2cc(ncn2)Nc2cccc(c2)CNC1=O (stereo not shown)", "ErbB2 (h) (Homo sapiens, UniProt P04626)", "1 to 10 µM"]
]}

In the following, a different compound is considered.
State its IC50 on ErbB2 (h) (Homo sapiens, UniProt P04626): CCN1CCNC(=O)C(CCCCN(C)C)NC(=O)CN(C)Cc2cccc(c2)Nc2cc(ncn2)Nc2cccc(c2)C1 (stereo not shown) 1 to 10 µM

* * *

C4 score (inhibition of Fes human) listing for selected compounds.
biological target: Fes (h) (Homo sapiens, UniProt P07332); assay: Fes human kinase assay (glass-fiber filter); type: biochemical; conditions: test concentration of 10^−6M
Sequence (P07332 whole entry): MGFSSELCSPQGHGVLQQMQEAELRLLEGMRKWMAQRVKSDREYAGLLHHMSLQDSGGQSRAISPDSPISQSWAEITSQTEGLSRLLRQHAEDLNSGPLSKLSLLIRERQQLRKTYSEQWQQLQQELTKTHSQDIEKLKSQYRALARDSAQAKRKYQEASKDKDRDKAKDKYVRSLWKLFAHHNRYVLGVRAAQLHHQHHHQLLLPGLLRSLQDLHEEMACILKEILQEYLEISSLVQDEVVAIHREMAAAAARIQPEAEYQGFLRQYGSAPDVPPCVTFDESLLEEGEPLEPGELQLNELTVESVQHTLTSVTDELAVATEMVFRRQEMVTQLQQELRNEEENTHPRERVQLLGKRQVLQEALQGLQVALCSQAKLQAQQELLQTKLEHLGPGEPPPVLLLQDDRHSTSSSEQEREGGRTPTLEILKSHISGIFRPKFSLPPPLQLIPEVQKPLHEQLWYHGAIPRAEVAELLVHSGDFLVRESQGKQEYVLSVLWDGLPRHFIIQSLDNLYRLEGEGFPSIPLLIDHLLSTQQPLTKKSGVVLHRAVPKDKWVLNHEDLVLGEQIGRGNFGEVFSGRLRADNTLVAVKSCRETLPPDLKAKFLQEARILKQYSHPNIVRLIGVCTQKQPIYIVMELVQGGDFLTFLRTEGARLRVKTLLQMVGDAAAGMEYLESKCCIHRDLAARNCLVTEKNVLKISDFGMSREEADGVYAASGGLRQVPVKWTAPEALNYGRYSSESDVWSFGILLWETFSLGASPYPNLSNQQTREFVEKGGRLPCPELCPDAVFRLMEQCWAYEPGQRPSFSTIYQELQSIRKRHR

Solved entries (count: 2):
{"columns": ["SMILES", "C4 score (inhibition of Fes human)"],
 "data": [
  ["Cl.Cl.O=C1CNC(=O)Cc2ccc(Cl)cc2Nc2cc(ncn2)Nc2ccc(OCCCN3CCOCC3)c(c2)OCCN1", "4 (Score 4=>80% inhibition)"],
  ["COc1ccc2cc1OCCCCCCCCCOc1ccc(Cl)cc1Nc1cc(ncn1)N2", "1 (Score 1=10-30% inhibition)"]
]}

State its C4 score (inhibition of Fes human) on Fes (h) (Homo sapiens, UniProt P07332): `COc1ccc2cc1OCCCNC(=O)[C@@H]1CCCN1Cc1cc(F)c(Cl)cc1Nc1nc(ncc1C#N)N2` 1 (Score 1=10-30% inhibition)

* * *

Here's what we have: pIC50 numbers for EGFR-kinase domain (Homo sapiens, UniProt P00533).
pIC50: −log10 of the molar value.

Solved entries (count: 2):
{"columns": ["COMPOUND", "pIC50"],
 "data": [
  ["CN1CC(=O)N2CCC2C(=O)NCc2cccc(c2)Nc2cc(ncn2)Nc2cccc(c2)C1 (stereo not drawn) [Compound 151]", "> 6.00"],
  ["CN1Cc2cccc(c2)Nc2cc(ncn2)Nc2cccc(c2)OCCCCNC(=O)CCN2CCC1CC2 [Compound 196]", "5.00 to 6.00"]
]}

In the following, a different compound is considered.
State its pIC50 on EGFR-kinase domain (Homo sapiens, UniProt P00533): COc1ccc2cc1OCCNC(=O)C1CN(CCO1)C(=O)CN(C)Cc1cccc(c1)Nc1cc(ncn1)N2 (racemic) [Compound 158] > 6.00

* * *

target: Fes (h) (Homo sapiens); experiment: Fes human kinase assay (glass-fiber filter); type: biochemical; conditions: test concentration of 10^−6M; read-out: C4 score (inhibition of Fes human)
QUANTITY KIND: inhibition at 1 µM

Solved entries (count: 3):
{"columns": ["COMPOUND", "TARGET SYSTEM", "QUANTITY KIND", "RESULT"],
 "data": [
  ["O=C1NCCCCCOc2cccc(c2)Nc2ccnc(n2)Nc2cccc1c2 [Compound 22]", "Fes (h) (Homo sapiens)", "inhibition at 1 µM", "10 to 30%"],
  ["N#Cc1cnc2nc1Nc1cccc(c1)OCC(=O)NCCCOc1cccc(c1)N2 [Compound 25]", "Fes (h) (Homo sapiens)", "inhibition at 1 µM", "60 to 80%"],
  ["N#Cc1cnc2nc1Nc1cccc(c1)OCC(=O)NCCOc1cccc(c1)N2 [Compound 27]", "Fes (h) (Homo sapiens)", "inhibition at 1 µM", "10 to 30%"]
]}

Look up inhibition at 1 µM: CC1(C)NC(=O)Cc2ccc(Cl)cc2Nc2cc(ncn2)Nc2ccc(OCCCN3CCOCC3)c(c2)OCCNC1=O [Compound 106] > 80%

Look up inhibition at 1 µM: N#Cc1cnc2nc1Nc1cccc(c1)OCCCNC(=O)COc1cccc(c1)N2 [Compound 28] 10 to 30%

* * *

biological target: Lyn (h) (Homo sapiens, UniProt P07948); assay: Lyn human kinase assay (glass-fiber filter); assay type: biochemical; settings: test concentration of 10^−6M
Sequence (P07948 whole entry): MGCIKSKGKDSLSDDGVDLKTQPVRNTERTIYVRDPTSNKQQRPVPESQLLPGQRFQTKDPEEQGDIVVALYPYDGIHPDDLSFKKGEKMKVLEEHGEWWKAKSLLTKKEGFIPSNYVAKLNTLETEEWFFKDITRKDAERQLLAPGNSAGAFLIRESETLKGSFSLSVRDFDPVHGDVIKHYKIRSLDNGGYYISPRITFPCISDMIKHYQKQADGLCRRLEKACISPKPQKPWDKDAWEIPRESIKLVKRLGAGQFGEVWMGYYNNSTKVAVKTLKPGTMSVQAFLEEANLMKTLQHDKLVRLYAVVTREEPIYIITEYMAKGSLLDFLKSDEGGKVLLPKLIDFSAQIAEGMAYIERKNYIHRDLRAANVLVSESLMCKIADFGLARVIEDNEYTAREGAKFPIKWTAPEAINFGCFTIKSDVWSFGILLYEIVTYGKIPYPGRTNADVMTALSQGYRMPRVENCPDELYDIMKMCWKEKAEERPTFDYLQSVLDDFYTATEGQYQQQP
C10 score (inhibition of Lyn human) listing for selected molecules.

Solved entries (count: 5):
{"columns": ["SMILES", "TARGET SYSTEM", "C10 score (inhibition of Lyn human)"],
 "data": [
  ["COc1ccc2cc1OCCCCCCCCOc1ccc(Br)cc1Nc1cc(ncn1)N2", "Lyn (h) (Homo sapiens, UniProt P07948)", "1 (Score 1=10-30% inhibition)"],
  ["COc1ccc2cc1OCCCNC(=O)[C@@H]1CCCN1Cc1cc(F)c(Cl)cc1Nc1nc(ncc1C#N)N2", "Lyn (h) (Homo sapiens, UniProt P07948)", "1 (Score 1=10-30% inhibition)"],
  ["COc1ccc2cc1OCCNC(=O)[C@@H]1CCCN1Cc1cc(F)c(Cl)cc1Nc1nc(ncc1C#N)N2", "Lyn (h) (Homo sapiens, UniProt P07948)", "4 (Score 4=>80% inhibition)"],
  ["COc1ccc2cc1OCCCCCCOc1ccc(Br)cc1Nc1cc(ncn1)N2", "Lyn (h) (Homo sapiens, UniProt P07948)", "3 (Score 3=60-80% inhibition)"],
  ["Cl.Cl.O=C1CNC(=O)Cc2ccc(Cl)cc2Nc2cc(ncn2)Nc2ccc(OCCCN3CCOCC3)c(c2)OCCN1", "Lyn (h) (Homo sapiens, UniProt P07948)", "4 (Score 4=>80% inhibition)"]
]}

In the following, a different molecule is considered.
Look up C10 score (inhibition of Lyn human): `COc1ccc2cc1OCCCCCCCOc1ccc(Br)cc1Nc1cc(ncn1)N2` 2 (Score 2=30-60% inhibition)
